The values you see were collected from PubChem BioAssay AID1919003.

- System: 786-0 complex spheroids with HUVEC/MSC, growth % test/control
- experiment summary: Anticancer human tumor 786-0 cell line growth inhibition [AhR];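 also: compound exposure lasted seven days before the read-out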
- experimental context: curve of first compound; second compound 3.16 µM
quantity measured: pIC50
Answers are plain numbers, as −log10 of the molar value.

Answered examples (4):
1. CC(C)CC(NC(=O)C(Cc1ccccc1)NC(=O)c1cnccn1)B(O)O (stereo unspecified) + CC(CO)NC(=O)c1cc(-c2ccc(Cl)cc2)nn(-c2cnn(C)c2)c1=O = 8.10
2. Nc1ccccc1NC(=O)c1ccc(CNC(=O)OCc2cccnc2)cc1 + Cc1ccccc1N=Nc1ccc(NC(=O)c2ccnn2C)c(C)c1 = 5.18
3. O=C(C=Cc1cccc(S(=O)(=O)Nc2ccccc2)c1)NO + Cc1ccccc1N=Nc1ccc(NC(=O)c2ccnn2C)c(C)c1 = 5.24
4. COc1cc(Nc2ncc3c(n2)-c2ccc(Cl)cc2C(c2c(F)cccc2OC)=NC3)ccc1C(=O)O + Cc1cncc(-c2nc(NCCc3c[nH]c4ccccc34)c3ncn(C(C)C)c3n2)c1 = 5.11

Please turn your attention to the following entry.
**Query** What does the record list as pIC50 for CC1COCCN1c1cc(-c2ccnn2C)c2ccnc(-c3ccn[nH]3)c2n1 (stereo unspecified) + CC(CO)NC(=O)c1cc(-c2ccc(Cl)cc2)nn(-c2cnn(C)c2)c1=O ?
**Result** 7.10

* * *

- Tested on: 786-0 complex spheroids with HUVEC/MSC, growth % test/control
- experiment summary: Anticancer human tumor 786-0 cell line growth inhibition [AhR];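 also: compound exposure lasted seven days before the read-out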
- experimental context: second compound 0.316 µM; first compound 3.16 µM; stronger effect = lower value
Give measured viability, T/C for each item. Keep answers brief.

Answered examples (5):
1) O=C(c1cc(Cc2n[nH]c(=O)c3ccccc23)ccc1F)N1CCN(C(=O)C2CC2)CC1 + Cc1ccccc1N=Nc1ccc(NC(=O)c2ccnn2C)c(C)c1 = 107%
2) CC1COCCN1c1cc(C2(S(C)(=N)=O)CC2)nc(-c2ccnc3[nH]ccc23)n1 (stereo unspecified) + Cc1cncc(-c2nc(NCCc3c[nH]c4ccccc34)c3ncn(C(C)C)c3n2)c1 = 91.9%
3) COc1cc(Nc2ncc3c(n2)-c2ccc(Cl)cc2C(c2c(F)cccc2OC)=NC3)ccc1C(=O)O + Cc1ccccc1N=Nc1ccc(NC(=O)c2ccnn2C)c(C)c1 = 55.1%
4) CC1COCCN1c1cc(C2(S(C)(=N)=O)CC2)nc(-c2ccnc3[nH]ccc23)n1 (stereo unspecified) + Cc1ccccc1N=Nc1ccc(NC(=O)c2ccnn2C)c(C)c1 = 72.7%
5) COc1ccc([C@@H](O)c2cc(-c3ncnc4cc(N5CCOCC5)ccc34)c(F)cc2Cl)nn1 + CC(CO)NC(=O)c1cc(-c2ccc(Cl)cc2)nn(-c2cnn(C)c2)c1=O = 108%

Please turn your attention to the following entry.
**Query** What does the record list as viability, T/C for COc1ccc([C@@H](O)c2cc(-c3ncnc4cc(N5CCOCC5)ccc34)c(F)cc2Cl)nn1 + Cc1cncc(-c2nc(NCCc3c[nH]c4ccccc34)c3ncn(C(C)C)c3n2)c1 ?
**Result** 103%

* * *

- System: 786-0 complex spheroids with HUVEC/MSC, growth % test/control
- experiment summary: Anticancer human tumor 786-0 cell line growth inhibition [AhR]; active means viability on the fitted dose curve at most 10% of control; inactive means the rest;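 also: compound exposure lasted seven days before the read-out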
- experimental context: second compound 0.1 µM; first compound 1 µM
- Description: Multicellular complex tumor spheroid response to aryl hydrocarbon receptor antagonists in combination with a variety of drugs and investigational agents in selected tumor cell lines […] Compounds. […] If the clinical Cmax for an agent had not been determined, the highest concentration tested was 10 microM (Table 1). […]
// one of yes (1) (active), no (0) (inactive), no free text

Worked set:
1. CC(C)c1c(-c2ccccc2)nc2c(C#N)c[nH]n2c1=O + CC(CO)NC(=O)c1cc(-c2ccc(Cl)cc2)nn(-c2cnn(C)c2)c1=O = no (0)
2. CC1COCCN1c1cc(-c2ccnn2C)c2ccnc(-c3ccn[nH]3)c2n1 (stereo unspecified) + Cc1cncc(-c2nc(NCCc3c[nH]c4ccccc34)c3ncn(C(C)C)c3n2)c1 = yes (1)
3. NS(=O)(=O)OCC1CC(n2ccc3c(NC4CCc5ccccc54)ncnc32)CC1O (stereo unspecified) + Cc1ccccc1N=Nc1ccc(NC(=O)c2ccnn2C)c(C)c1 = no (0)
4. CC1COCCN1c1cc(-c2ccnn2C)c2ccnc(-c3ccn[nH]3)c2n1 (stereo unspecified) + Cc1ccccc1N=Nc1ccc(NC(=O)c2ccnn2C)c(C)c1 = yes (1)
5. Nc1ccn(C2OC(CO)C(O)C2(F)F)c(=O)n1 (stereo unspecified) + Cc1cncc(-c2nc(NCCc3c[nH]c4ccccc34)c3ncn(C(C)C)c3n2)c1 = yes (1)

Next up:
**Query** Assay result, entry COc1cc(C2c3cc4c(cc3C(OC3OC5COC(C)OC5C(O)C3O)C3COC(=O)C23)OCO4)cc(OC)c1O (stereo unspecified) + Cc1ccccc1N=Nc1ccc(NC(=O)c2ccnn2C)c(C)c1 — outcome?
**Result** no (0)

* * *

Give measured viability, T/C for each item. Keep answers brief.
- System: 786-0 complex spheroids with HUVEC/MSC, growth % test/control
- experiment summary: Anticancer human tumor 786-0 cell line growth inhibition [AhR];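 also: compound exposure lasted seven days before the read-out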
- experimental context: second compound 1 µM; first compound 0.0316 µM; stronger effect = lower value
Give bare numbers, in %.

1. COc1cccc2c1C(=O)c1c(O)c3c(c(O)c1C2=O)CC(O)(C(=O)CO)CC3OC1CC(N)C(O)C(C)O1 (configuration not stated) + Cc1cncc(-c2nc(NCCc3c[nH]c4ccccc34)c3ncn(C(C)C)c3n2)c1 = 62.5
2. NS(=O)(=O)OCC1CC(n2ccc3c(NC4CCc5ccccc54)ncnc32)CC1O (configuration not stated) + CC(CO)NC(=O)c1cc(-c2ccc(Cl)cc2)nn(-c2cnn(C)c2)c1=O = 77.4

Look up viability, T/C for the entries below, preserving their order.
1. CC1COCCN1c1cc(C2(S(C)(=N)=O)CC2)nc(-c2ccnc3[nH]ccc23)n1 (configuration not stated) + Cc1ccccc1N=Nc1ccc(NC(=O)c2ccnn2C)c(C)c1
2. Nc1ncn(C2CC(O)C(CO)O2)c(=O)n1 (configuration not stated) + CC(CO)NC(=O)c1cc(-c2ccc(Cl)cc2)nn(-c2cnn(C)c2)c1=O

**Result**
[98, 88.6]

Look up viability, T/C for the entries below, preserving their order.
1. COc1cc(Nc2ncc3c(n2)-c2ccc(Cl)cc2C(c2c(F)cccc2OC)=NC3)ccc1C(=O)O + Cc1cncc(-c2nc(NCCc3c[nH]c4ccccc34)c3ncn(C(C)C)c3n2)c1
2. O=C(c1cc(Cc2n[nH]c(=O)c3ccccc23)ccc1F)N1CCN(C(=O)C2CC2)CC1 + CC(CO)NC(=O)c1cc(-c2ccc(Cl)cc2)nn(-c2cnn(C)c2)c1=O
3. NS(=O)(=O)OCC1CC(n2ccc3c(NC4CCc5ccccc54)ncnc32)CC1O (configuration not stated) + Cc1ccccc1N=Nc1ccc(NC(=O)c2ccnn2C)c(C)c1
4. COc1cc(Nc2ncc3c(n2)-c2ccc(Cl)cc2C(c2c(F)cccc2OC)=NC3)ccc1C(=O)O + CC(CO)NC(=O)c1cc(-c2ccc(Cl)cc2)nn(-c2cnn(C)c2)c1=O
5. COc1ccc([C@@H](O)c2cc(-c3ncnc4cc(N5CCOCC5)ccc34)c(F)cc2Cl)nn1 + CC(CO)NC(=O)c1cc(-c2ccc(Cl)cc2)nn(-c2cnn(C)c2)c1=O

**Result**
1. 115
2. 98.7
3. 88
4. 96.8
5. 110

Look up viability, T/C for the entries below, preserving their order.
1. Nc1ccn(C2OC(CO)C(O)C2(F)F)c(=O)n1 (configuration not stated) + Cc1ccccc1N=Nc1ccc(NC(=O)c2ccnn2C)c(C)c1
2. CC1COCCN1c1cc(C2(S(C)(=N)=O)CC2)nc(-c2ccnc3[nH]ccc23)n1 (configuration not stated) + Cc1cncc(-c2nc(NCCc3c[nH]c4ccccc34)c3ncn(C(C)C)c3n2)c1
3. O=C(C=Cc1cccc(S(=O)(=O)Nc2ccccc2)c1)NO + Cc1ccccc1N=Nc1ccc(NC(=O)c2ccnn2C)c(C)c1

**Result**
1. 6.79
2. 100
3. 98.2

* * *

- Test system: 786-0 complex spheroids with HUVEC/MSC, growth % test/control
- experiment summary: Anticancer human tumor 786-0 cell line growth inhibition [AhR];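 also: compound exposure lasted seven days before the read-out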
- experimental context: second compound 0.316 µM; first compound 3.16 µM; stronger effect = lower value
Our labelling divides records by viability, T/C into ranges: band 1 = under 10%, band 2 = from 10% up to 90%, band 3 = 90% and over

Worked set:
1) CC(C)c1c(-c2ccccc2)nc2c(C#N)c[nH]n2c1=O + Cc1cncc(-c2nc(NCCc3c[nH]c4ccccc34)c3ncn(C(C)C)c3n2)c1 = band 3
2) Nc1ccn(C2OC(CO)C(O)C2(F)F)c(=O)n1 (centres undefined) + Cc1cncc(-c2nc(NCCc3c[nH]c4ccccc34)c3ncn(C(C)C)c3n2)c1 = band 1
3) CC1COCCN1c1cc(C2(S(C)(=N)=O)CC2)nc(-c2ccnc3[nH]ccc23)n1 (centres undefined) + CC(CO)NC(=O)c1cc(-c2ccc(Cl)cc2)nn(-c2cnn(C)c2)c1=O = band 2
4) Nc1ccn(C2OC(CO)C(O)C2(F)F)c(=O)n1 (centres undefined) + CC(CO)NC(=O)c1cc(-c2ccc(Cl)cc2)nn(-c2cnn(C)c2)c1=O = band 1
5) NS(=O)(=O)OCC1CC(n2ccc3c(NC4CCc5ccccc54)ncnc32)CC1O (centres undefined) + Cc1ccccc1N=Nc1ccc(NC(=O)c2ccnn2C)c(C)c1 = band 2
6) NS(=O)(=O)OCC1CC(n2ccc3c(NC4CCc5ccccc54)ncnc32)CC1O (centres undefined) + Cc1cncc(-c2nc(NCCc3c[nH]c4ccccc34)c3ncn(C(C)C)c3n2)c1 = band 1
7) COc1ccc([C@@H](O)c2cc(-c3ncnc4cc(N5CCOCC5)ccc34)c(F)cc2Cl)nn1 + Cc1ccccc1N=Nc1ccc(NC(=O)c2ccnn2C)c(C)c1 = band 3
8) COc1cc(Nc2ncc3c(n2)-c2ccc(Cl)cc2C(c2c(F)cccc2OC)=NC3)ccc1C(=O)O + CC(CO)NC(=O)c1cc(-c2ccc(Cl)cc2)nn(-c2cnn(C)c2)c1=O = band 2
9) COc1cc(C2c3cc4c(cc3C(OC3OC5COC(C)OC5C(O)C3O)C3COC(=O)C23)OCO4)cc(OC)c1O (centres undefined) + Cc1ccccc1N=Nc1ccc(NC(=O)c2ccnn2C)c(C)c1 = band 2
10) COc1cccc2c1C(=O)c1c(O)c3c(c(O)c1C2=O)CC(O)(C(=O)CO)CC3OC1CC(N)C(O)C(C)O1 (centres undefined) + Cc1ccccc1N=Nc1ccc(NC(=O)c2ccnn2C)c(C)c1 = band 1

**Query** Assign a category based on measured viability, T/C for O=C(c1cc(Cc2n[nH]c(=O)c3ccccc23)ccc1F)N1CCN(C(=O)C2CC2)CC1 + Cc1cncc(-c2nc(NCCc3c[nH]c4ccccc34)c3ncn(C(C)C)c3n2)c1 and give only the class name.
**Result** band 3

**Query** Assign a category based on measured viability, T/C for O=C(C=Cc1cccc(S(=O)(=O)Nc2ccccc2)c1)NO + Cc1cncc(-c2nc(NCCc3c[nH]c4ccccc34)c3ncn(C(C)C)c3n2)c1 and give only the class name.
**Result** band 3

**Query** Assign a category based on measured viability, T/C for O=C(c1cc(Cc2n[nH]c(=O)c3ccccc23)ccc1F)N1CCN(C(=O)C2CC2)CC1 + CC(CO)NC(=O)c1cc(-c2ccc(Cl)cc2)nn(-c2cnn(C)c2)c1=O and give only the class name.
**Result** band 3

**Query** Assign a category based on measured viability, T/C for COc1cccc2c1C(=O)c1c(O)c3c(c(O)c1C2=O)CC(O)(C(=O)CO)CC3OC1CC(N)C(O)C(C)O1 (centres undefined) + CC(CO)NC(=O)c1cc(-c2ccc(Cl)cc2)nn(-c2cnn(C)c2)c1=O and give only the class name.
**Result** band 1

**Query** Assign a category based on measured viability, T/C for O=C(C=Cc1cccc(S(=O)(=O)Nc2ccccc2)c1)NO + Cc1ccccc1N=Nc1ccc(NC(=O)c2ccnn2C)c(C)c1 and give only the class name.
**Result** band 2

**Query** Assign a category based on measured viability, T/C for NS(=O)(=O)OCC1CC(n2ccc3c(NC4CCc5ccccc54)ncnc32)CC1O (centres undefined) + CC(CO)NC(=O)c1cc(-c2ccc(Cl)cc2)nn(-c2cnn(C)c2)c1=O and give only the class name.
**Result** band 1

**Query** Assign a category based on measured viability, T/C for Nc1ccccc1NC(=O)c1ccc(CNC(=O)OCc2cccnc2)cc1 + Cc1ccccc1N=Nc1ccc(NC(=O)c2ccnn2C)c(C)c1 and give only the class name.
**Result** band 3
